# subject of test: human glucagon receptor (human) (UniProt P47871)
# Sequence (P47871 26-477): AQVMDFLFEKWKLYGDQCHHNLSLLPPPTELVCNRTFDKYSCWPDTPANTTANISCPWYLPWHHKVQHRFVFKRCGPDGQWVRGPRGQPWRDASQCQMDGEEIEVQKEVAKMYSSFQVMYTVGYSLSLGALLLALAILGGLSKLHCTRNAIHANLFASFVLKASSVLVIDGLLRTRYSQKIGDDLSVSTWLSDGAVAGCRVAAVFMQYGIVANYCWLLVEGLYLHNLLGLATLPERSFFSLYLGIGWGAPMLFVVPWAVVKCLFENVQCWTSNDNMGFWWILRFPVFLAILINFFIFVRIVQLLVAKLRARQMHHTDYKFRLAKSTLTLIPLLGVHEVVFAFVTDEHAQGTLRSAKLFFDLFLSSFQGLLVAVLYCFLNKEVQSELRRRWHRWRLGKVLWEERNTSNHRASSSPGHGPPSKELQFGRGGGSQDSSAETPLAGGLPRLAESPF
# method description: cell-based or functional assay
Non-standard residues stand in square brackets, D forms with d. No end group written: not given here. Phe(4-CN) = N#Cc1ccc(C[C@H](N)C(=O)O)cc1; αMePhe(2-F) = C[C@](N)(Cc1ccccc1F)C(=O)O; Aib = CC(C)(N)C(=O)O
cAMP Rel EC50, nM (1% HSA) vs 800 nM: less than gives Fulfilled; not less than gives Not fulfilled.

Solved cases (5 shown):
binder	cat
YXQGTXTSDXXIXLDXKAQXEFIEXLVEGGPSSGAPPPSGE (synthetic construct; SITE 2: note = 2-Aminoisobutyric Acid; SITE 6: note = alpha-methyl-2-fluoro-L-phenylalanine; SITE 10: note = 3-(4-Pyridyl)-L-alanine; SITE 11: note = alpha-methyl-L-serine; SITE 13: note = alpha-methyl-leucine; SITE 16: note = L-ornithine; SITE 17: note = Lysine is chemically mo) [Example 749]	Fulfilled
YXQGTFTSDFSXXLDKKAQXAFIEYLLEXGPSSGEPPPEGS (synthetic construct; SITE 2: note = 2-Aminoisobutyric Acid; SITE 12: note = L-ornithine; SITE 13: note = alpha-methyl-leucine; SITE 17: note = Lysine is chemically modified through conjugation of the epsilon-amino group of the Lysine side chain with (2-[2-(2-Amino-ethoxy)-ethoxy]-acetyl)2-(gamma-Glu)) [Example 195]	Fulfilled
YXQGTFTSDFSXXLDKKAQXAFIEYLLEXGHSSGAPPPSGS (synthetic construct; SITE 2: note = 2-Aminoisobutyric Acid; SITE 12: note = L-ornithine; SITE 13: note = alpha-methyl-leucine; SITE 17: note = Lysine is chemically modified through conjugation of the epsilon-amino group of the Lysine side chain with (2-[2-(2-Amino-ethoxy)-ethoxy]-acetyl)2-(gamma-Glu)) [Example 181]	Fulfilled
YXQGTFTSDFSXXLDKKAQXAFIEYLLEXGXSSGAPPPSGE (synthetic construct; SITE 2: note = 2-Aminoisobutyric Acid; SITE 12: note = L-ornithine; SITE 13: note = alpha-methyl-leucine; SITE 17: note = Lysine is chemically modified through conjugation of the epsilon-amino group of the Lysine side chain with (2-[2-(2-Amino-ethoxy)-ethoxy]-acetyl)2-(gamma-Glu)) [Example 189]	Not fulfilled
YXQGTFTSDXSQXLDXKAQXAFIEYLIAGGPSSGAPPPSGSEE (non-natural residues; acylated Lys; C-terminal amide; synthetic construct; SITE 2: note = 2-Aminoisobutyric Acid; SITE 10: note = 3-(4-Pyridyl)-L-alanine; SITE 13: note = alpha-methyl-leucine; SITE 16: note = L-ornithine; SITE 17: note = Lysine is chemically modified through conjugation of the epsilon-amino group of the Lysine side chain with (gamma-Gl)) [Example 1035]	Not fulfilled

Read the next record carefully.
Quick check: cAMP Rel EC50, nM (1% HSA) of Y[Aib]QGT[αMePhe(2-F)]TSD[Phe(4-CN)]SILLDKQAQKAFIEYLLEGGPSSGEPPPSEG-NH2 (not fully specified (residue 20)) [Example 352] under 800 nM?
Not fulfilled
